Assayed System: H. sapiens p97 (P55072) (Homo sapiens)
Construct: 6xHis (C); made in house; host or cells: E. coli BL21 (DE3)
Sequence (P55072 whole entry): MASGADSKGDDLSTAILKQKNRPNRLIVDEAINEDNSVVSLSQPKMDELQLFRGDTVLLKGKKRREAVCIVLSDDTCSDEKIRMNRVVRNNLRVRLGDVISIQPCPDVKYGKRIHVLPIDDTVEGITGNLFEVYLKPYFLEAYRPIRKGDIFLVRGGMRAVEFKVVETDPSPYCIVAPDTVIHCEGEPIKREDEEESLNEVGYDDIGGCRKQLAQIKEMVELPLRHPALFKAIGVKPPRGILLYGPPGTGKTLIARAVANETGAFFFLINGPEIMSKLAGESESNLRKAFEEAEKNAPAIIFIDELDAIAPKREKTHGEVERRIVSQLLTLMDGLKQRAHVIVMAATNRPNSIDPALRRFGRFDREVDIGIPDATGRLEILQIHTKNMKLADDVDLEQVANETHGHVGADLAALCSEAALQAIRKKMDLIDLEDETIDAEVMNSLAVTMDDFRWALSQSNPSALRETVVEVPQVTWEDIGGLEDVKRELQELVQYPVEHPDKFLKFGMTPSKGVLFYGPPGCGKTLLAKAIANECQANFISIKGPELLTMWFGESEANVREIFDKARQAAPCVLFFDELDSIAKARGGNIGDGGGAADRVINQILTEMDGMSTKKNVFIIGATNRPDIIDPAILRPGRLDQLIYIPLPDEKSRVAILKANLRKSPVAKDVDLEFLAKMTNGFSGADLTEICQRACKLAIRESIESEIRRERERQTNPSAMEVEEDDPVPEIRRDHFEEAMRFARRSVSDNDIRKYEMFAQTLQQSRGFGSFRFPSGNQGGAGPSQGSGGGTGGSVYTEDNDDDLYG
Assay Info: p97 ATPase activity, ATP consumption assay (Kinase-Glo), IC50 / counter screen
Format: biochemical
Condition Notes: recombinant human enzyme; 100 μM-1 nM; Fig. 4D
Reported Property: IC50 (µM)

* O=C(C#Cc1ccccc1)Nc1ccc2oc(-c3ccccn3)nc2c1 [Compound 243] | 20

* * *

Let's look at some molecules and their measured pIC50.
Assayed System: S. mansoni p97 (Smp_018240) (Schistosoma mansoni, UniProt G4M0P7)
Sequence (G4M0P7 entry or part of it): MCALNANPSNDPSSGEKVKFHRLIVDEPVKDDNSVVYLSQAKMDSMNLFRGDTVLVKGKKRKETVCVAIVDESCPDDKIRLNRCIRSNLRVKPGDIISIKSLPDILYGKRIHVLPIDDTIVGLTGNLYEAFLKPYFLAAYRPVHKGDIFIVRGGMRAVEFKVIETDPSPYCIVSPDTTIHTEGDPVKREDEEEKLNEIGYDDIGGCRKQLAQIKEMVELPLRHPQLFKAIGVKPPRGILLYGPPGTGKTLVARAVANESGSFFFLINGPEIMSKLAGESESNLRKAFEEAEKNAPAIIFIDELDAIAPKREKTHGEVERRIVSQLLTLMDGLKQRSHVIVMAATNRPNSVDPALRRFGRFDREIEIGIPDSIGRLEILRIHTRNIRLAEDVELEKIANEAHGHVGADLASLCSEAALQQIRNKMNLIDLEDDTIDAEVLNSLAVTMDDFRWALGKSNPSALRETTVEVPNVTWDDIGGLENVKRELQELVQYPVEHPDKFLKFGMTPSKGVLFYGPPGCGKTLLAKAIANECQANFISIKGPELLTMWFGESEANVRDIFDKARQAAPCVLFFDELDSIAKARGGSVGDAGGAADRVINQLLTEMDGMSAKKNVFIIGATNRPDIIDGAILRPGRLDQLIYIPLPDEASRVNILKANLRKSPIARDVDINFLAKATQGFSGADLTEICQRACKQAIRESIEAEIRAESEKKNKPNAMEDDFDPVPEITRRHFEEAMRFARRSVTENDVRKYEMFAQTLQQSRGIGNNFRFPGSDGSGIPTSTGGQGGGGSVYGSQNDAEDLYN
Assay Info: biochemical
Condition Notes: Sm p97; 100 μM – 1 nM; Suppl. Fig. 9C; read-out: S. mansoni IC50
pIC50: −log10 of the molar value.
Reported Property: pIC50

• Cc1cccnc1-c1nc2cc(NC(=O)C#Cc3ccncc3)ccc2o1 [Compound 804] = 6.72
• O=C(C#Cc1ccccc1)Nc1ccc2oc(-c3ccccn3)nc2c1 [Compound 243] = 5.68
• Cc1cccc(-c2nc3cc(NC(=O)C#Cc4ccncc4)ccc3o2)n1 [Compound 807] = 6.17
• COc1ccc(C#CC(=O)Nc2ccc3oc(-c4ccccn4)nc3c2)cc1 [Compound 734] = 4.32
• Cc1ccc(-c2nc3cc(NC(=O)C#Cc4ccncc4)ccc3o2)nc1 [Compound 806] = 6.33
• O=C(C#Cc1cccc(Cl)c1)Nc1ccc2oc(-c3ccccn3)nc2c1 [Compound 735] = 4.96

* * *

Assayed System: S. mansoni p97 (Smp_018240) (Schistosoma mansoni)
Assay Info: biochemical
Condition Notes: H. sapiens vs S. mansoni p97 IC50; Suppl. Fig. 9C
Reported Property: Fold Selectivity

* O=C(C#Cc1ccncc1)Nc1ccc2oc(-c3ccccn3)nc2c1 | 2.1
* O=C(C#Cc1ccccn1)Nc1ccc2oc(-c3ccccn3)nc2c1 | 4.3
* Cc1ccc(-c2nc3cc(NC(=O)C#Cc4ccncc4)ccc3o2)nc1 | 1.1
* Cc1cccc(-c2nc3cc(NC(=O)C#Cc4ccncc4)ccc3o2)n1 | 0.70
* Cc1cccnc1-c1nc2cc(NC(=O)C#Cc3ccncc3)ccc2o1 | 0.70
* O=C(C#Cc1cccnc1)Nc1ccc2oc(-c3ccccn3)nc2c1 | 1.9
* Cc1ccnc(-c2nc3cc(NC(=O)C#Cc4ccncc4)ccc3o2)c1 | 0.80
* O=C(C#Cc1cccc(Cl)c1)Nc1ccc2oc(-c3ccccn3)nc2c1 | 0.70
* COc1ccc(C#CC(=O)Nc2ccc3oc(-c4ccccn4)nc3c2)cc1 | 1.7
* O=C(C#Cc1ccc(Cl)cc1)Nc1ccc2oc(-c3ccccn3)nc2c1 | 1.1

* * *

Tested on: HepG2 cells
Assay Info: HepG2 cytotoxicity assay (Cell Titer Glo 2.0)
Assay type: cell-based, human
Condition Notes: Homo sapiens, HepG2, read-out: HepG2 GI50
Reported Property: GI50 (nM)

* Cc1cccc(-c2nc3cc(NC(=O)C#Cc4ccncc4)ccc3o2)n1 | 1100
* Cc1ccc(-c2nc3cc(NC(=O)C#Cc4ccncc4)ccc3o2)nc1 | 1500
* O=C(C#Cc1ccccc1)Nc1ccc2oc(-c3ccccn3)nc2c1 | 5600
* Cc1ccnc(-c2nc3cc(NC(=O)C#Cc4ccncc4)ccc3o2)c1 | 1200
* O=C(C#Cc1ccncc1)Nc1ccc2oc(-c3ccccn3)nc2c1 | 850
* Cc1cccnc1-c1nc2cc(NC(=O)C#Cc3ccncc3)ccc2o1 | 930

* * *

System: S. mansoni vcp/p97 (Smp_018240)
Assay Info: High-throughput screening (HTS) assay, Kinase-Glo, 10 μM single concentration
Type: biochemical, Schistosoma mansoni
Condition Notes: 10 μM compound; normalized to CB-5083; Fig. 4A
Criterion: Screen Inhibition strictly under 40%. Met: yes (1). Not met: no (0).

* O=C(C#Cc1ccccc1)Nc1ccc2oc(-c3cccnc3)nc2c1 | yes (1)
* O=C(C#Cc1ccccc1)Nc1ccc2oc(-c3ccccn3)nc2c1 | no (0)
* O=C(/C=C\c1ccccc1)Nc1ccc2oc(-c3ccccc3)nc2c1 | yes (1)
* O=C(C#Cc1ccccc1)Nc1ccc2oc(-c3ccccc3)nc2c1 | yes (1)
* O=C(CCc1ccccc1)Nc1ccc2oc(-c3ccccn3)nc2c1 | yes (1)
* O=C(C#Cc1ccccc1)Nc1ccc2oc(-c3ccncc3)nc2c1 | no (0)
* O=C(C=Cc1ccccc1)Nc1ccc2oc(-c3ccccc3)nc2c1 | yes (1)

* * *

Let's look at some compounds and their measured pIC50.
Assayed System: UniProt:G4M0P7
Assay Info: biochemical
Condition Notes: Smp97; re-tested screen compounds; 100 μM-1 nM; Fig. 4A; read-out: S. mansoni IC50
pIC50: −log10 of the molar value.
Reported Property: pIC50

• O=C(C#Cc1ccccc1)Nc1ccc2oc(-c3ccccn3)nc2c1 = 5.68
• O=C(/C=C\c1ccccc1)Nc1ccc2oc(-c3ccccc3)nc2c1 = < 4.00
• O=C(C=Cc1ccccc1)Nc1ccc2oc(-c3ccccc3)nc2c1 = < 4.00
• O=C(CCc1ccccc1)Nc1ccc2oc(-c3ccccn3)nc2c1 = < 4.00

* * *

Assayed System: H. sapiens p97 (P55072) (Homo sapiens)
Construct: 6xHis (C); made in house; host or cells: E. coli BL21 (DE3)
Assay Info: p97 ATPase activity, ATP consumption assay (Kinase-Glo), IC50 / counter screen
Format: biochemical
Condition Notes: Hs p97; 100 μM – 1 nM; Suppl. Fig. 9C
Heads up, the class ranges for IC50 are L (below 500 nM), M (500 nM to below 7000 nM), H (7000 nM or more)

* O=C(C#Cc1ccccc1)Nc1ccc2oc(-c3ccccn3)nc2c1 [Compound 243] | H
* Cc1cccnc1-c1nc2cc(NC(=O)C#Cc3ccncc3)ccc2o1 [Compound 804] | L
* O=C(C#Cc1ccncc1)Nc1ccc2oc(-c3ccccn3)nc2c1 [Compound 739] | L
* O=C(C#Cc1ccc(Cl)cc1)Nc1ccc2oc(-c3ccccn3)nc2c1 [Compound 736] | M
* COc1ccc(C#CC(=O)Nc2ccc3oc(-c4ccccn4)nc3c2)cc1 [Compound 734] | H
* Cc1ccnc(-c2nc3cc(NC(=O)C#Cc4ccncc4)ccc3o2)c1 [Compound 805] | L
* O=C(C#Cc1ccccn1)Nc1ccc2oc(-c3ccccn3)nc2c1 [Compound 737] | H
* O=C(C#Cc1cccnc1)Nc1ccc2oc(-c3ccccn3)nc2c1 [Compound 738] | M
* O=C(C#Cc1cccc(Cl)c1)Nc1ccc2oc(-c3ccccn3)nc2c1 [Compound 735] | H

* * *

Test system: adult S. mansoni worms
Assay Info: Treatment of adult S. mansoni worms in culture with inhibitors (attachment to tissue culture substrate, morphology; single 10 μM and dose-response EC50)
Format: cell-based, Schistosoma mansoni
Condition Notes: inhibitors of human targets; 10 μM
Reported Property: effect on adult parasites

* CC1(C)C(N(O)C(=O)Nc2ccc(Cl)cc2)N(c2ccc(Cl)cc2)C(=O)N1CC(=O)N/N=C/C=C/c1ccc([N+](=O)[O-])o1 (stereo not shown) [Eeyarestatin I, reference compound] | effective
* CC(C)N1CCN(CCNC2CCN(c3cccc(-c4cc5cc(F)ccc5[nH]4)c3)CC2)CC1 [UPCDC-30245, reference compound] | effective

* * *

Let's look at some compounds and their measured pIC50.
Assayed System: S. mansoni p97 (Smp_018240) (Schistosoma mansoni, UniProt G4M0P7)
Assay Info: biochemical
Condition Notes: Sm p97; 100 μM – 1 nM; Suppl. Fig. 9C; read-out: S. mansoni IC50
Procedure: E. coli BL21 (DE3) containing the desired plasmid were grown in LB medium containing […] kanamycin while shaking at 37 °C to an OD600 of 0.6–0.8. The temperature was reduced to 18°C and 0.8 mM isopropyl-beta-D-thiogalactopyranoside (IPTG) was added. […] Fractions corresponding to an apparent molecular weight of 500 – 600 kDa were collected and analyzed by 4–20% SDS/PAGE to evaluate purity. Concentration was determined using a BSA standard. […] IC50 values were calculated using GraphPad Prism.
pIC50: −log10 of the molar value.
Reported Property: pIC50

• O=C(C#Cc1ccccn1)Nc1ccc2oc(-c3ccccn3)nc2c1 = 5.52
• O=C(C#Cc1cccnc1)Nc1ccc2oc(-c3ccccn3)nc2c1 = 6.38
• O=C(C#Cc1ccc(Cl)cc1)Nc1ccc2oc(-c3ccccn3)nc2c1 = 5.23
• Cc1ccnc(-c2nc3cc(NC(=O)C#Cc4ccncc4)ccc3o2)c1 = 6.77
